Molecular target: Recombinant human MASP2 enzyme (fragment corresponding to amino acids 297-686, C-terminal His Tag) (human, UniProt O00187 297-686)
Sequence (O00187 other isoform, or with tags, fused parts or gaps limits assumed): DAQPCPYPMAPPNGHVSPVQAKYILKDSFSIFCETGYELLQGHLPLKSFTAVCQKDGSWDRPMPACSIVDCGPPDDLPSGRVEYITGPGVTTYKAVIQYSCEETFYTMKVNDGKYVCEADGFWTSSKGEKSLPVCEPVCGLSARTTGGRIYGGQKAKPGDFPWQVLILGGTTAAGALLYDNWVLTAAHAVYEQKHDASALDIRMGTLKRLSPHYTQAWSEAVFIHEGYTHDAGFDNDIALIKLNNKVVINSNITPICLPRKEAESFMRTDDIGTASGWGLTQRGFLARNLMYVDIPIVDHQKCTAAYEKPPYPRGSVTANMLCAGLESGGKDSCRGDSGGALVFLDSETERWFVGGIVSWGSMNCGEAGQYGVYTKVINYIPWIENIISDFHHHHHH
Experiment: cell-based or functional assay
Bridge positions count the residues as written; N and C are the ends. Square brackets hold non-standard residues; d marks the D form. Ends that are not written are not given here. tBuAla = CC(C)(C)C[C@H](N)C(=O)O; Pen = CC(C)(S)[C@H](N)C(=O)O; Dab = NCC[C@H](N)C(=O)O
Endpoint Name: human MASP2 IC50 (nM)
State just the number; it will be interpreted in nM.

// returns reported human MASP2 IC50 for input [Dab]ICSRS[tBuAla]PPI[Pen]IP-NH2 (disulfide 3-11; N-terminus assumed; SMILES CC[C@H](C)[C@H](NC(=O)[C@@H](N)CCN)C(=O)N[C@H]1CSSC(C)(C)[C@@H](C(=O)N[C@H](C(=O)N2CCC[C@H]2C(N)=O)[C@@H](C)CC)NC(=O)[C@H]([C@@H](C)CC)NC(=O)[C@@H]2CCCN2C(=O)[C@@H]2CCCN2C(=O)[C@H](CC(C)(C)C)NC(=O)[C@H](CO)NC(=O)[C@H](CCCNC(=N)N)NC(=O)[C@H](CO)NC1=O) [(Dab)-IC+SRS-((tBu)A)-PPI-(Pen)+IP-NH2]
64
